Each record here notes measured human MASP2 IC50.
tested system: Recombinant human MASP2 enzyme (fragment corresponding to amino acids 297-686, C-terminal His Tag) (human, UniProt O00187 297-686)
Sequence (O00187 other isoform, or with tags, fused parts or gaps limits assumed): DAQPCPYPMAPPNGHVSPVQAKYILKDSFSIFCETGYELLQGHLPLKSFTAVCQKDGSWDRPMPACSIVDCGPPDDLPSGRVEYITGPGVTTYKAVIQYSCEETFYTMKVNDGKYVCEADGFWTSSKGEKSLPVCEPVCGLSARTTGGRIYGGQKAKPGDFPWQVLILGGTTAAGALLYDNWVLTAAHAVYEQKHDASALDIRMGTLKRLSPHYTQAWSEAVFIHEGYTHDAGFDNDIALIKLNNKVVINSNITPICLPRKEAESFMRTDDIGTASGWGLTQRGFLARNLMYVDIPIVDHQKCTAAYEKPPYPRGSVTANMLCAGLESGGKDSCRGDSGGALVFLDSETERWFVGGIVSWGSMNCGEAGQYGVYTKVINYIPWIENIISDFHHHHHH
test summary: cell-based or functional assay
Numbered stars: 1 amine (or outer) side, 2 acyl side, 3 side chain; on linkers, the order of the positions; unused ones are H or OH. Bridge positions count the residues as written; N and C are the ends. Square brackets hold non-standard residues; d marks the D form. Ends that are not written are not given here. * marks the point of attachment. (3-Chloro-Ph)G = 3-chlorophenylglycine, O=C([C@@H](N[*:1])c1cccc(Cl)c1)[*:2]; Benzoyl(3-COOH) = O=C(O)c1cccc(C(=O)*)c1; Oic = O=C(O)[C@@H]1C[C@@H]2CCCC[C@@H]2N1; Pen = CC(C)(S)[C@H](N)C(=O)O

binder	unit tag	human MASP2 IC50
{Benzoyl(3-COOH)}-GICSRSLP[Oic]I[Pen]IPD-OH (disulfide 3-11; SMILES CC[C@H](C)[C@H](NC(=O)CNC(=O)c1cccc(C(=O)O)c1)C(=O)N[C@H]1CSSC(C)(C)[C@@H](C(=O)N[C@H](C(=O)N2CCC[C@H]2C(=O)N[C@@H](CC(=O)O)C(=O)O)[C@@H](C)CC)NC(=O)[C@H]([C@@H](C)CC)NC(=O)[C@@H]2C[C@@H]3CCCC[C@@H]3N2C(=O)[C@@H]2CCCN2C(=O)[C@H](CC(C)C)NC(=O)[C@H](CO)NC(=O)[C@H](CCCNC(=N)N)NC(=O)[C@H](CO)NC1=O) [(3-Carboxybenzoic acid)-GIC+SRSLP-(Oic)-I-(Pen)+IPD-OH]	nM	43
AICSRSLPP[(3-Chloro-Ph)G]CIPD-OH (disulfide 3-11; N-terminus assumed; SMILES CC[C@H](C)[C@H](NC(=O)[C@H](C)N)C(=O)N[C@H]1CSSC[C@@H](C(=O)N[C@H](C(=O)N2CCC[C@H]2C(=O)N[C@@H](CC(=O)O)C(=O)O)[C@@H](C)CC)NC(=O)[C@H](c2cccc(Cl)c2)NC(=O)[C@@H]2CCCN2C(=O)[C@@H]2CCCN2C(=O)[C@H](CC(C)C)NC(=O)[C@H](CO)NC(=O)[C@H](CCCNC(=N)N)NC(=O)[C@H](CO)NC1=O) [AIC+SRSLPP-((3-Chloro-Ph)G)-C+IPD-OH]	nM	1000

Data credit: patent US20210246166A1
